This collection of values is drawn from ChEMBL document CHEMBL5053505.

Documented pIC50 across a set of compounds
target: Cannabinoid receptor 2 (Homo sapiens, UniProt P34972); experiment: Antagonist activity at human CB2 Receptor expressed in CHO cell membranes measured after 24 hrs by HTRF assay
Sequence (P34972 whole entry): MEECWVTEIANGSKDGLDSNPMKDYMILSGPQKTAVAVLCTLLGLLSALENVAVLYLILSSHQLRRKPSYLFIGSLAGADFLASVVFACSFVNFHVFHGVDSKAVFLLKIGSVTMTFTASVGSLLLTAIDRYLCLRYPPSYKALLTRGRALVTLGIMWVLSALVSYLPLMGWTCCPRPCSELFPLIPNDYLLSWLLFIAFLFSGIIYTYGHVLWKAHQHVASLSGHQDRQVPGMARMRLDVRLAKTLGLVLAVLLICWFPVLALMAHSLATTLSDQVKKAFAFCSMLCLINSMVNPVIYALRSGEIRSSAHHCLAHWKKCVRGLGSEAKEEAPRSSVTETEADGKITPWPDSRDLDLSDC
pIC50: −log10 of the molar value.

| smiles.text | pIC50 |
| --- | --- |
| Cc1c(C(=O)Nc2ccccc2/N=N\c2ccccc2)nn(CCCCCO)c1-c1ccccc1 | 6.21 |
| Cc1c(C(=O)NCCc2ccccc2/N=N/c2ccccc2)nn(CCCCCO)c1-c1ccccc1 | 5.68 |
| Cc1c(C(=O)NCc2cccc(/N=N\c3ccccc3)c2)nn(CCCCCO)c1-c1ccccc1 | 5.15 |
| Cc1c(C(=O)Nc2cccc(/N=N\c3ccccc3)c2)nn(CCCCCO)c1-c1ccccc1 | 6.39 |
| Cc1c(C(=O)NCc2ccccc2/N=N/c2ccccc2)nn(CCCCCO)c1-c1ccccc1 | 5.49 |
| Cc1c(C(=O)NCc2ccccc2/N=N\c2ccccc2)nn(CCCCCO)c1-c1ccccc1 | 7.15 |
| Cc1c(C(=O)NCc2ccc(/N=N\c3ccccc3)cc2)nn(CCCCCO)c1-c1ccccc1 | 5.16 |
| Cc1c(C(=O)NCCCc2cccc(/N=N\c3ccccc3)c2)nn(CCCCCO)c1-c1ccccc1 | 5.96 |
| Cc1c(C(=O)NCCCc2ccc(/N=N\c3ccccc3)cc2)nn(CCCCCO)c1-c1ccccc1 | 5.46 |
| Cc1c(C(=O)Nc2ccccc2/N=N/c2ccccc2)nn(CCCCCO)c1-c1ccccc1 | 5.26 |
| Cc1c(C(=O)NCCCc2cccc(/N=N/c3ccccc3)c2)nn(CCCCCO)c1-c1ccccc1 | 5.43 |
| Cc1c(C(=O)Nc2ccc(/N=N\c3ccccc3)cc2)nn(CCCCCO)c1-c1ccccc1 | 5.05 |
| Cc1c(C(=O)NCCCc2ccccc2/N=N\c2ccccc2)nn(CCCCCO)c1-c1ccccc1 | 5.89 |
| Cc1c(C(=O)NCCCc2ccccc2/N=N/c2ccccc2)nn(CCCCCO)c1-c1ccccc1 | 5.47 |

---

molecular target: UniProt:P34972; test: Antagonist activity at human CB2 Receptor expressed in CHO cell membranes measured after 24 hrs by HTRF assay
Consider the following compounds and their measured log10 of IC50 readings.
observation.type: log10 of IC50 (log10 of the value in nM)

| smiles.text | meas.value |
| --- | --- |
| Cc1c(C(=O)NCCc2ccc(/N=N\c3ccccc3)cc2)nn(CCCCCO)c1-c1ccccc1 | 3.72 |
| Cc1c(C(=O)NCCc2ccccc2/N=N\c2ccccc2)nn(CCCCCO)c1-c1ccccc1 | 2.56 |
| Cc1c(C(=O)Nc2cccc(/N=N/c3ccccc3)c2)nn(CCCCCO)c1-c1ccccc1 | 3.18 |
| Cc1c(C(=O)NCCc2cccc(/N=N\c3ccccc3)c2)nn(CCCCCO)c1-c1ccccc1 | 3.20 |
| Cc1c(C(=O)NCCc2cccc(/N=N/c3ccccc3)c2)nn(CCCCCO)c1-c1ccccc1 | 3.81 |

---

Recorded measurements of IC50, one per entry
target: Cannabinoid receptor 1 (Homo sapiens, UniProt P21554); experiment: Antagonist activity at human CB1 Receptor expressed in CHO cell membranes measured after 24 hrs by HTRF assay
Sequence (P21554 whole entry): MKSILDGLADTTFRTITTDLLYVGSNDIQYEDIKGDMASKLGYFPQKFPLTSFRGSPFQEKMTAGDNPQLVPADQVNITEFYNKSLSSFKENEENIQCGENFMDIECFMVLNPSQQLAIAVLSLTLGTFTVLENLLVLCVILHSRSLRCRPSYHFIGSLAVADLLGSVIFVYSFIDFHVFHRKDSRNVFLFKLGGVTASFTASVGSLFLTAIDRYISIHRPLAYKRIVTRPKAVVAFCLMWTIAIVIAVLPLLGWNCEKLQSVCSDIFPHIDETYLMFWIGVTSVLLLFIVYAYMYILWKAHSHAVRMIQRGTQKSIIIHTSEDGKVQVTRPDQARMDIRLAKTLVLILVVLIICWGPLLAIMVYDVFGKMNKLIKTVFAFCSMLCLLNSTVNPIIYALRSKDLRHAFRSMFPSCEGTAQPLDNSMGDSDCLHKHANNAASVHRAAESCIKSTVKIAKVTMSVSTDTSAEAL

| smiles.text | IC50 [µM] |
| --- | --- |
| Cc1c(C(=O)NCCc2ccc(/N=N\c3ccccc3)cc2)nn(CCCCCO)c1-c1ccccc1 | 3.3 |
| Cc1c(C(=O)NCc2cccc(/N=N\c3ccccc3)c2)nn(CCCCCO)c1-c1ccccc1 | 5.8 |
| Cc1c(C(=O)NCc2ccccc2/N=N/c2ccccc2)nn(CCCCCO)c1-c1ccccc1 | 1.6 |
| Cc1c(C(=O)NCCCc2cccc(/N=N/c3ccccc3)c2)nn(CCCCCO)c1-c1ccccc1 | 4.8 |
| Cc1c(C(=O)NCCc2ccccc2/N=N/c2ccccc2)nn(CCCCCO)c1-c1ccccc1 | 3.8 |
| Cc1c(C(=O)NCc2ccc(/N=N/c3ccccc3)cc2)nn(CCCCCO)c1-c1ccccc1 | 8.3 |
| Cc1c(C(=O)NCCCc2ccc(/N=N\c3ccccc3)cc2)nn(CCCCCO)c1-c1ccccc1 | 5.4 |
| Cc1c(C(=O)NCc2ccc(/N=N\c3ccccc3)cc2)nn(CCCCCO)c1-c1ccccc1 | 4.1 |
| Cc1c(C(=O)Nc2cccc(/N=N\c3ccccc3)c2)nn(CCCCCO)c1-c1ccccc1 | 2.4 |
| Cc1c(C(=O)NCCCc2ccc(/N=N/c3ccccc3)cc2)nn(CCCCCO)c1-c1ccccc1 | 7.2 |
| Cc1c(C(=O)NCCc2ccccc2/N=N\c2ccccc2)nn(CCCCCO)c1-c1ccccc1 | 1.7 |
| Cc1c(C(=O)Nc2cccc(/N=N/c3ccccc3)c2)nn(CCCCCO)c1-c1ccccc1 | 6.2 |
| Cc1c(C(=O)NCCc2cccc(/N=N/c3ccccc3)c2)nn(CCCCCO)c1-c1ccccc1 | 5.9 |
| Cc1c(C(=O)NCCCc2cccc(/N=N\c3ccccc3)c2)nn(CCCCCO)c1-c1ccccc1 | 3.8 |
| Cc1c(C(=O)NCCCc2ccccc2/N=N\c2ccccc2)nn(CCCCCO)c1-c1ccccc1 | 3.9 |
| Cc1c(C(=O)NCCCc2ccccc2/N=N/c2ccccc2)nn(CCCCCO)c1-c1ccccc1 | 9 |
| Cc1c(C(=O)NCc2ccccc2/N=N\c2ccccc2)nn(CCCCCO)c1-c1ccccc1 | 1.1 |
| Cc1c(C(=O)NCCc2cccc(/N=N\c3ccccc3)c2)nn(CCCCCO)c1-c1ccccc1 | 3.3 |
| Cc1c(C(=O)NCCc2ccc(/N=N/c3ccccc3)cc2)nn(CCCCCO)c1-c1ccccc1 | 7.9 |
| Cc1c(C(=O)NCc2cccc(/N=N/c3ccccc3)c2)nn(CCCCCO)c1-c1ccccc1 | 9.4 |
